- Method summary: Drug concentration in SCID mouse plasma xenografted with human SNU-16 cells at 20 mg/kg, po administered twice daily at 12 hrs interval for 21 days and measured after 1 hrs post last dose by LC-MS/MS analysis
- Type: ADME, organism-based
Reported property: concentration at 505 h (ng/mL)
Write the answer as a number in ng/mL, unit excluded.

Query block: Would you mind telling me what concentration at 505 h value was observed for `COc1cc(CCc2cc(-c3nc4ccc(CN5CCOCC5)cc4[nH]3)n[nH]2)cc(OC)c1` ?
Result block: 3980

Query block: Given the compound `COc1cc(CCc2cc(-c3nc4ccc(N5CCN(C)CC5)cc4[nH]3)n[nH]2)cc(OC)c1` , what is its reported concentration at 505 h?
Result block: 2360

====

- Method summary: Drug concentration in SCID mouse tumor xenografted with human SNU-16 cells at 20 mg/kg, po administered twice daily at 12 hrs interval for 21 days and measured after 6 hrs post last dose by LC-MS/MS analysis
- Format: ADME, organism-based, Neoplasm
- Recorded conditions: read-out: Ct
Reported property: concentration at 510 h (ng/g)
// note: answer is a bare numeric in ng/g

# Smiles code, Endpoint unit, concentration at 510 h
data = [
    ("COc1cc(CCc2cc(-c3nc4ccc(CN5CCOCC5)cc4[nH]3)n[nH]2)cc(OC)c1", "ng/g", 191),
]

Query block: # concentration at 510 h lookup, item `COc1cc(CCc2cc(-c3nc4ccc(N5CCN(C)CC5)cc4[nH]3)n[nH]2)cc(OC)c1`
Result block: 617

====

- Method summary: Cmax in BALB/c mouse at 40 mg/kg, po measured upto 12 hrs by LC-MS/MS analysis
- Assay type: ADME, organism-based
- Design: dose 40 mg/kg, time < 12 hrs, route po
- Recorded conditions: in vivo
As shown below, each of these compounds has a reported Cmax value.
# value in ng/mL; strip the unit string

The examples below pair each entry with its known result.
# Smiles code, Reported property, Endpoint unit, Value reported
data = [
    ("COc1cc(CCc2cc(-c3nc4ccc(N5CCN(C)CC5)cc4[nH]3)n[nH]2)cc(OC)c1", "Cmax", "ng/mL", 3370),
    ("COc1cc(CCc2cc(-c3nc4ccc(CN5CCOCC5)cc4[nH]3)n[nH]2)cc(OC)c1", "Cmax", "ng/mL", 1790),
    ("COc1cc(OC)c(Cl)c(CCc2cc(-c3nc4ccc(CN5CCN(C)CC5)cc4[nH]3)n[nH]2)c1Cl", "Cmax", "ng/mL", 177),
]

Query block: # Cmax lookup, item `COc1cc(OC)c(Cl)c(CCc2cc(-c3nc4ccc(N5CCN(C)CC5)cc4[nH]3)n[nH]2)c1Cl`
Result block: 400

====

- Method summary: Tmax in BALB/c mouse at 40 mg/kg, po measured upto 12 hrs by LC-MS/MS analysis
- Format: ADME, organism-based
- Recorded conditions: in vivo
Reported property: Tmax
Express your answer as a number followed by its unit.

Sample records with Tmax:
# Smiles code, Tmax
rows = [
    ("COc1cc(OC)c(Cl)c(CCc2cc(-c3nc4ccc(CN5CCN(C)CC5)cc4[nH]3)n[nH]2)c1Cl", "60 min"),
    ("COc1cc(OC)c(Cl)c(CCc2cc(-c3nc4ccc(N5CCN(C)CC5)cc4[nH]3)n[nH]2)c1Cl", "30 min"),
    ("COc1cc(CCc2cc(-c3nc4ccc(CN5CCOCC5)cc4[nH]3)n[nH]2)cc(OC)c1", "15 min"),
]

--- query ---
Query block: Given `COc1cc(CCc2cc(-c3nc4ccc(N5CCN(C)CC5)cc4[nH]3)n[nH]2)cc(OC)c1` , state its recorded Tmax.
Result block: 120 min

====

Measured AUC(0-t) at 12 h by item
- Method summary: AUC(0 to t) in BALB/c mouse at 40 mg/kg, po measured upto 12 hrs by LC-MS/MS analysis
- Type: ADME, organism-based
- Parameters: dose 40 mg/kg, time < 12 hrs, route po
- Recorded conditions: in vivo
Express the result in ng·h/mL but write the number alone.

Check out these entries, answers already filled in.
# Smiles code, Endpoint unit, AUC(0-t) at 12 h
data = [
    ("COc1cc(OC)c(Cl)c(CCc2cc(-c3nc4ccc(CN5CCN(C)CC5)cc4[nH]3)n[nH]2)c1Cl", "ng·h/mL", 170),
    ("COc1cc(OC)c(Cl)c(CCc2cc(-c3nc4ccc(N5CCN(C)CC5)cc4[nH]3)n[nH]2)c1Cl", "ng·h/mL", 927),
    ("COc1cc(CCc2cc(-c3nc4ccc(CN5CCOCC5)cc4[nH]3)n[nH]2)cc(OC)c1", "ng·h/mL", 2150),
]

Consider the record given below.
Query block: Could you tell me which AUC(0-t) at 12 h is on file for `COc1cc(CCc2cc(-c3nc4ccc(N5CCN(C)CC5)cc4[nH]3)n[nH]2)cc(OC)c1` ?
Result block: 13800

====

Measured concentration at 505 h by item
- Method summary: Drug concentration in SCID mouse tumor xenografted with human SNU-16 cells at 20 mg/kg, po administered twice daily at 12 hrs interval for 21 days and measured after 1 hrs post last dose by LC-MS/MS analysis
- Format: ADME, organism-based, Neoplasm
- Recorded conditions: read-out: Ct
Response body: numeric value in ng/g, unit text excluded.

Query block: Reported concentration at 505 h, molecule `COc1cc(CCc2cc(-c3nc4ccc(CN5CCOCC5)cc4[nH]3)n[nH]2)cc(OC)c1` : ____
Result block: 580

Query block: What value of concentration at 505 h has been reported for the following molecule? `COc1cc(CCc2cc(-c3nc4ccc(N5CCN(C)CC5)cc4[nH]3)n[nH]2)cc(OC)c1`
Result block: 512

Reference source for all entries: ChEMBL document CHEMBL5096142
